Biological target: Integrin alpha-V/beta-5 (Homo sapiens, UniProt P06756+P18084)
Sequence (P06756 31-889 limits assumed): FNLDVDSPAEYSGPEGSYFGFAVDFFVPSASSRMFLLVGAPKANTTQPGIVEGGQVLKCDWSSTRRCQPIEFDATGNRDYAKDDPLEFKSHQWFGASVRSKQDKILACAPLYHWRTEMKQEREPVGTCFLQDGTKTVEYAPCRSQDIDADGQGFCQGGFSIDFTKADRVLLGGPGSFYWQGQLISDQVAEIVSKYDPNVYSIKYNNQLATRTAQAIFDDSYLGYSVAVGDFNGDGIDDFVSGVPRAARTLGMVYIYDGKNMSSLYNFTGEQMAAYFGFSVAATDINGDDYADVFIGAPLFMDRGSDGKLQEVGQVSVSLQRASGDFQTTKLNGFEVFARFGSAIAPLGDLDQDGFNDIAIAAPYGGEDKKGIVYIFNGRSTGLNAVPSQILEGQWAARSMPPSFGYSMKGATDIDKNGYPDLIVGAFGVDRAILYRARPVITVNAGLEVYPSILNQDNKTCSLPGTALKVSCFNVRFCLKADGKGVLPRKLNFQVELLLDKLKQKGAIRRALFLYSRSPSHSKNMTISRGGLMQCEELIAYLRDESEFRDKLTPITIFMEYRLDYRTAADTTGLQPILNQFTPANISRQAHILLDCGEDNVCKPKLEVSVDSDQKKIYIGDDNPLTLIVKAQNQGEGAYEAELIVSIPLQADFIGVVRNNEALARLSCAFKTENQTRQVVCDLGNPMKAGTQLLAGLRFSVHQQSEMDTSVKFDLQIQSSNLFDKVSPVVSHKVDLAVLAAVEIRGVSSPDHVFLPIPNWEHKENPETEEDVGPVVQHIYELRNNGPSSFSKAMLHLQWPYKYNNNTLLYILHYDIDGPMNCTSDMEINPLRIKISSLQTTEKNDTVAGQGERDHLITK
Sequence (P06756 891-1048 limits assumed): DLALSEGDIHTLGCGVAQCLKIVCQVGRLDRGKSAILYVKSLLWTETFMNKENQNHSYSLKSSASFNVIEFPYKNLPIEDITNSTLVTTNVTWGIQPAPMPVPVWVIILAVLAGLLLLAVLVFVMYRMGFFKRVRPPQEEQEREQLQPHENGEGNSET
Sequence (P18084 24-799 limits assumed): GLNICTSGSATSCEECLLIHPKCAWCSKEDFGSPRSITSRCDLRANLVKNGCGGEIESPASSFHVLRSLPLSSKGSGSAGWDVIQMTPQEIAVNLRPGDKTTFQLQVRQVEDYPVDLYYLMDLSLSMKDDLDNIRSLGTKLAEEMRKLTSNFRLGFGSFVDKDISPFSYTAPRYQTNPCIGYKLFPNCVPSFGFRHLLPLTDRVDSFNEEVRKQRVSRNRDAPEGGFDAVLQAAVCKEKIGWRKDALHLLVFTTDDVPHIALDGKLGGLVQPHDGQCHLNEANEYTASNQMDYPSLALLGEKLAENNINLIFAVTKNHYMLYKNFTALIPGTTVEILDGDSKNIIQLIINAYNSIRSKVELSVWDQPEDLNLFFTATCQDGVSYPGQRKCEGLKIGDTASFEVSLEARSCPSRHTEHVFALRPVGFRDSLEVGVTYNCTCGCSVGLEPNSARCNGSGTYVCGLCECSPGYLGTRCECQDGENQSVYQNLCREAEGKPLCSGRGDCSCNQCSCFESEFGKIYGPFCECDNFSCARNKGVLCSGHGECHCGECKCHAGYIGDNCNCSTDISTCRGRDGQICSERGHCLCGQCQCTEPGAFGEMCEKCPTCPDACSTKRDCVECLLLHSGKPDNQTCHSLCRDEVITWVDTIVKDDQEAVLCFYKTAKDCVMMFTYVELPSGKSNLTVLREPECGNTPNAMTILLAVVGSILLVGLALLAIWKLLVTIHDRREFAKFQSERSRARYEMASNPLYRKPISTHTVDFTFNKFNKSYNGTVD
Test: Inhibition of integrin alphavbeta5 (unknown origin) by fluorescence polarization assay
Measured Attribute: IC50 (nM)
Quick reminder: number only, in nM, skip the unit.

Solved entries:
# Record Smiles, Unit Label, IC50
rows = [
    ("O=C(O)C[C@H](C(=O)N1CC[C@@H](CCc2ccc3c(n2)NCCC3)C1)c1cccc(Br)c1", "nM", 3.98),
    ("Cc1cc(C)cc([C@H](CC(=O)O)C(=O)N2CC[C@@H](CCc3ccc4c(n3)NCCC4)C2)c1", "nM", 10),
    ("CN(CCCCc1ccc2c(n1)NCCC2)C(=O)[C@@H](CC(=O)O)c1ccccc1", "nM", 200),
]

For record `O=C(O)C[C@H](C(=O)N1CC[C@@H](CCc2ccc3c(n2)NCCC3)C1)c1cccc(-c2ccccc2)c1` the listed IC50 is 6.31

----------
Measured clearance, listed per entry.
Assay: Clearance in human microsomes assessed per gram tissue
Format: ADME, Microsome

For record `O=C(O)C[C@H](C(=O)N1CC[C@@H](CCc2ccc3c(n2)NCCC3)C1)c1cccc(C(F)(F)F)c1` the listed clearance is < 0.4 mL/min/g

For record `N#Cc1cccc([C@H](CC(=O)O)C(=O)N2CC[C@@H](CCc3ccc4c(n3)NCCC4)C2)c1` the listed clearance is < 0.4 mL/min/g

For record `Cc1cccc([C@H](CC(=O)O)C(=O)N2CC[C@@H](CCc3ccc4c(n3)NCCC4)C2)c1` the listed clearance is < 0.4 mL/min/g

----------
Measured Ratio IC50, listed per entry.
Organism: Homo sapiens
Test: Selectivity ratio of IC50 for inhibition of integrin alphavbeta3 (unknown origin) to IC50 for inhibition of integrin alphavbeta5 (unknown origin)
The answer should be a number; do not append a unit.

Solved entries:
# Compound, Ratio IC50
measured = [
    ("O=C(O)C[C@H](C(=O)N1CC[C@@H](CCc2ccc3c(n2)NCCC3)C1)c1cccc(N2CCNCC2)c1", 100),
    ("O=C(O)C[C@H](C(=O)N1CC[C@@H](CCc2ccc3c(n2)NCCC3)C1)c1ccccc1Br", 10),
    ("CN(CCCCc1ccc2c(n1)NCCC2)C(=O)[C@@H](CC(=O)O)c1ccccc1", 25),
]

For record `Cc1csc([C@H](CC(=O)O)C(=O)N2CC[C@@H](CCc3ccc4c(n3)NCCC4)C2)c1` the listed Ratio IC50 is 200

For record `C=C(C)c1cccc([C@H](CC(=O)O)C(=O)N2CC[C@@H](CCc3ccc4c(n3)NCCC4)C2)c1` the listed Ratio IC50 is 500

For record `O=C(O)CCn1ccc2cc(OCCCNc3ccccn3)ccc21` the listed Ratio IC50 is 6

----------
Biological target: Integrin alpha-V/beta-3 (Homo sapiens, UniProt P05106+P06756)
Sequence (P05106 27-788 limits assumed): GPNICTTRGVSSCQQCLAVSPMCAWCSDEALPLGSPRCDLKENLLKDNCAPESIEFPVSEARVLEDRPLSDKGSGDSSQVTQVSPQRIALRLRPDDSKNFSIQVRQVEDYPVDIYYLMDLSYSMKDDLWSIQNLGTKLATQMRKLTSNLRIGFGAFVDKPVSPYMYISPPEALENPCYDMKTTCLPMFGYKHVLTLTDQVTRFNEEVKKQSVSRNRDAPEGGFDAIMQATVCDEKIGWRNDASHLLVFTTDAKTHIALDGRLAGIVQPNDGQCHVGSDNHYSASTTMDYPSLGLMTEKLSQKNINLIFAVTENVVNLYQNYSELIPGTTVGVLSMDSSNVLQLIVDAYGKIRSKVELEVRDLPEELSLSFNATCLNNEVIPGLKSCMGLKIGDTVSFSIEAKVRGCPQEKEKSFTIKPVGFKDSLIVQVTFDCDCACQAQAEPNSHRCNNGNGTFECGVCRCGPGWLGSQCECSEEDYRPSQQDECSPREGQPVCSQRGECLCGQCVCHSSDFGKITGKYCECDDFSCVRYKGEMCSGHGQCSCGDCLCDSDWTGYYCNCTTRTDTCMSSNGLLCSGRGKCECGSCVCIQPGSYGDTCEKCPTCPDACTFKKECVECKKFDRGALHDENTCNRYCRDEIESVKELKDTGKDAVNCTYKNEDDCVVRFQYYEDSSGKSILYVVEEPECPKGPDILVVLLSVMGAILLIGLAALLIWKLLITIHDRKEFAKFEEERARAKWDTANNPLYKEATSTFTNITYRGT
Sequence (P06756 31-889 limits assumed): as the sequence (P06756 31-889 limits assumed) above
Sequence (P06756 891-1048 limits assumed): as the sequence (P06756 891-1048 limits assumed) above
Assay: Inhibition of integrin alphavbeta3 (unknown origin) by fluorescence polarization assay
Param label: returns Yes when IC50 < 2 µM, returns No otherwise, including exact equality.

# Record Smiles, Tgt, Label
rows = [
    ("O=C(O)C[C@H](C(=O)N1CC[C@@H](CCc2ccc3c(n2)NCCC3)C1)c1cccc(C(F)(F)F)c1", "Integrin alpha-V/beta-3 (Homo sapiens, UniProt P05106+P06756)", "No"),
    ("O=C(O)CCn1ccc2cc(OCCCNc3ccccn3)ccc21", "Integrin alpha-V/beta-3 (Homo sapiens, UniProt P05106+P06756)", "Yes"),
    ("O=C(O)C[C@H](C(=O)N1CC[C@@H](CCc2ccc3c(n2)NCCC3)C1)c1ccccc1Br", "Integrin alpha-V/beta-3 (Homo sapiens, UniProt P05106+P06756)", "No"),
]

Below 2 µM on IC50? Entry `Cc1csc([C@H](CC(=O)O)C(=O)N2CC[C@@H](CCc3ccc4c(n3)NCCC4)C2)c1`
Yes

Below 2 µM on IC50? Entry `O=C(O)C[C@H](C(=O)N1CC[C@@H](CCc2ccc3c(n2)NCCC3)C1)c1cccc(Cl)c1`
Yes

Below 2 µM on IC50? Entry `Cc1ccc([C@H](CC(=O)O)C(=O)N2CC[C@@H](CCc3ccc4c(n3)NCCC4)C2)s1`
Yes
